Experimental target: pseudolysin (PLN) (Pseudomonas aeruginosa)
Sequence (P14756 198-498): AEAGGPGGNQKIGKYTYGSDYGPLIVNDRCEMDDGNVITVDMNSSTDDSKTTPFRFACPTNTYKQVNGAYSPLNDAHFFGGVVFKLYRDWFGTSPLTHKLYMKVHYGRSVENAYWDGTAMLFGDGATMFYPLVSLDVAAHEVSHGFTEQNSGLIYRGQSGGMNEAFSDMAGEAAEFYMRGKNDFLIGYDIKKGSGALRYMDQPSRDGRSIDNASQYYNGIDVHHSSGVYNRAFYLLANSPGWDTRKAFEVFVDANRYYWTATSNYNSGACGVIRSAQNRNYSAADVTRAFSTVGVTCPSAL
Assay notes: Inhibition of pseudolysin (PLN), substrate McaRPPGFSAFK(Dnp)-OH
We begin with a simple list: items and their reported pKi.
Please keep in mind that pKi is minus log10 of the molar concentration; only the number is needed.

Reference set, count: 2
{"Compound": "CC(N)C(=O)NC(C)C(=O)NCCc1ccc(NC(=O)c2ccc(CN(Cc3ccccn3)Cc3ccccn3)nc2)cc1 (stereo not drawn)", "Experimental target": "pseudolysin (PLN) (Pseudomonas aeruginosa)", "Outcome measure": "pKi", "Recorded value": 5.22}
{"Compound": "CC(=O)OC[C@@H](OC(C)=O)[C@@H](OC(C)=O)[C@H](OC(C)=O)[C@H](CN(C)C(=O)c1ccc(CN(Cc2ccccn2)Cc2ccccn2)nc1)OC(C)=O", "Experimental target": "pseudolysin (PLN) (Pseudomonas aeruginosa)", "Outcome measure": "pKi", "Recorded value": 4.89}

Q) Tell me its pKi given `CN(C[C@H](O)[C@@H](O)[C@H](O)[C@H](O)CO)C(=O)c1ccc(CN(Cc2ccccn2)Cc2ccccn2)nc1` as the entry.
A) 5.30

Q) Tell me its pKi given CC(N)C(=O)NC(C)C(=O)N1CCN(C(=O)c2ccc(CN(Cc3ccccn3)Cc3ccccn3)nc2)CC1 (stereo not drawn) as the entry.
A) 4.96

Q) Tell me its pKi given `O=C(NCCc1ccc(NC(=O)c2ccc(CN(Cc3ccccn3)Cc3ccccn3)nc2)cc1)c1ccc(CN(Cc2ccccn2)Cc2ccccn2)nc1` as the entry.
A) 5.15

Q) Tell me its pKi given c1ccc(CNCc2ccccn2)nc1 [DPA, di(2-pyridinemethyl)amine, reference compound] as the entry.
A) 5.40

Q) Tell me its pKi given `O=C(O)c1ccc(CN(Cc2ccccn2)Cc2ccccn2)nc1` as the entry.
A) 5.40

Q) Tell me its pKi given `COC(=O)Cc1ccc(NC(=O)c2ccc(CN(Cc3ccccn3)Cc3ccccn3)nc2)cc1` as the entry.
A) 5.40

Q) Tell me its pKi given `O=C(O)c1ccc(CN(CCN(Cc2ccccn2)Cc2ccccn2)Cc2ccc(C(=O)O)cn2)nc1` as the entry.
A) 5.30
